# measurement-target: HLA-A*03:01
# test-name: IEDB peptide-MHC binding, purified MHC/competitive/fluorescence; filed as Kd, often an IC50 or EC50 that approximates it; bounds were set here for any values at or beyond the usual limits of such assays
# test-parameters: source organism: Vibrio vulnificus
pKd: −log10 of the molar value.
test-readout: pKd

Problem: I would be grateful if you could share the reported pKd for DEWECTRDD .
Result: ≤ 4.70

---

# measurement-target: HLA-A*03:01
# test-name: IEDB peptide-MHC binding, purified MHC/competitive/radioactivity; filed as Kd, often an IC50 or EC50 that approximates it; bounds were set here for any values at or beyond the usual limits of such assays
# test-parameters: source organism: Vaccinia virus Copenhagen
test-readout: pKd
FYI, pKd means -log10 of a concentration in mol per litre.

Problem: Param readout= pKd; system= HLA-A*03:01; entry= NTFVNFNSVK ; returns value.
Result: 7.13

---

# measurement-target: HLA-B*18:01
# test-name: IEDB peptide-MHC binding, purified MHC/competitive/fluorescence; filed as Kd, often an IC50 or EC50 that approximates it; bounds were set here for any values at or beyond the usual limits of such assays
# test-parameters: source organism: Reston ebolavirus
pKd: −log10 of the molar value.
test-readout: pKd

Problem: I would be grateful if you could share the reported pKd for TTDDSTSYY .
Result: ≤ 4.70

---

# measurement-target: HLA-A*23:01
# test-name: IEDB peptide-MHC binding, purified MHC/direct/fluorescence; filed as Kd, often an IC50 or EC50 that approximates it; bounds were set here for any values at or beyond the usual limits of such assays
# test-parameters: source organism: Influenza A virus
test-readout: Kd (µM)
Write the number in µM without appending the unit.

Problem: I would be grateful if you could share the reported Kd for DWSGYSGSF .
Result: 0.175

---

# measurement-target: HLA-C*07:02
# test-name: IEDB peptide-MHC binding, purified MHC/direct/fluorescence; filed as Kd, often an IC50 or EC50 that approximates it; bounds were set here for any values at or beyond the usual limits of such assays
# test-parameters: source organism: Vaccinia virus WR
test-readout: Kd (nM)
Write the number in nM without appending the unit.

Problem: Param readout= Kd; system= HLA-C*07:02; entry= NYFNRMFHF ; returns value.
Result: 3

---

# measurement-target: HLA-A*23:01
# test-name: IEDB peptide-MHC binding, purified MHC/competitive/radioactivity; filed as Kd, often an IC50 or EC50 that approximates it; bounds were set here for any values at or beyond the usual limits of such assays
# test-parameters: source organism: SARS coronavirus Tor2
test-readout: Kd

Take a look at these entries with their results.
Problem: Param readout= Kd; system= HLA-A*23:01; entry= PVSIINNAVY ; returns value.
Result: ≥ 70 µM

Problem: Next entry: FSSRMYCSFY
Result: ≥ 42.4 µM

Problem: Next entry: CGSVGFNIDY
Result: ≥ 70 µM

New cases:
Problem: Param readout= Kd; system= HLA-A*23:01; entry= LDEWSVATFY ; returns value.
Result: ≥ 47.9 µM

Problem: Next entry: FVSLAIDAY
Result: ≥ 28.8 µM

Problem: Next entry: FADINGKLY
Result: ≥ 77.8 µM

Problem: Next entry: LCANEYTGNY
Result: ≥ 70 µM

Problem: Next entry: FFFVYENAF
Result: ≥ 24 µM

Problem: Next entry: EWSVATFYL
Result: 5.5 µM

Problem: Next entry: FSNSGADVLY
Result: ≥ 70 µM

Problem: Next entry: TNSVIIMAY
Result: ≥ 77.8 µM

Problem: Next entry: VFNGTSWFI
Result: ≥ 77.8 µM

Problem: Next entry: HTSSMRGVYY
Result: ≥ 70 µM

Problem: Next entry: FYTTTGIGY
Result: ≥ 60.6 µM

Problem: Next entry: FMGRIRSVY
Result: ≥ 77.8 µM

Problem: Next entry: VFHLYLQYI
Result: 0.566 µM

Problem: Next entry: TVAYFNMVY
Result: 14.1 µM

Problem: Next entry: KYKYFSGAL
Result: 15 µM

---

# measurement-target: HLA-A*01:01
# test-name: IEDB peptide-MHC binding, purified MHC/direct/fluorescence; filed as Kd, often an IC50 or EC50 that approximates it; bounds were set here for any values at or beyond the usual limits of such assays
# test-parameters: source organism: Zaire ebolavirus
test-readout: Kd

Problem: I would be grateful if you could share the reported Kd for DLEKYNLAF .
Result: ≥ 20 µM

---

# measurement-target: HLA-A*24:02
# test-name: IEDB peptide-MHC binding, purified MHC/competitive/radioactivity; filed as Kd, often an IC50 or EC50 that approximates it; bounds were set here for any values at or beyond the usual limits of such assays
# test-parameters: source organism: Mammarenavirus mopeiaense
test-readout: Kd

Problem: I would be grateful if you could share the reported Kd for LCLSGEGWPY .
Result: ≥ 70.3 µM

---

# measurement-target: HLA-C*06:02
# test-name: IEDB peptide-MHC binding, purified MHC/direct/fluorescence; filed as Kd, often an IC50 or EC50 that approximates it; bounds were set here for any values at or beyond the usual limits of such assays
# test-parameters: source organism: Cryptosporidium parvum Iowa II
test-readout: Kd

Problem: I would be grateful if you could share the reported Kd for SFLHWFHHL .
Result: ≥ 20 µM

---

# measurement-target: HLA-A*26:01
# test-name: IEDB peptide-MHC binding, purified MHC/direct/fluorescence; filed as Kd, often an IC50 or EC50 that approximates it; bounds were set here for any values at or beyond the usual limits of such assays
# test-parameters: source organism: Mycobacterium tuberculosis str. Haarlem
pKd: −log10 of the molar value.
test-readout: pKd

Problem: I would be grateful if you could share the reported pKd for RPAPATGAL .
Result: ≤ 4.70

---

# measurement-target: HLA-B*57:01
# test-name: IEDB peptide-MHC binding, purified MHC/competitive/radioactivity; filed as Kd, often an IC50 or EC50 that approximates it; bounds were set here for any values at or beyond the usual limits of such assays
# test-parameters: source organism: Dengue virus 2 Jamaica/1409/1983
test-readout: pKd
FYI, pKd means -log10 of a concentration in mol per litre.

Problem: I would be grateful if you could share the reported pKd for HSSAAQRRGR .
Result: 7.14

Then this sequence:
Problem: I would be grateful if you could share the reported pKd for KSYAQMWTL .
Result: 8.18

---

# measurement-target: HLA-B*15:01
# test-name: IEDB peptide-MHC binding, purified MHC/direct/fluorescence; filed as Kd, often an IC50 or EC50 that approximates it; bounds were set here for any values at or beyond the usual limits of such assays
# test-parameters: source organism: SARS-CoV1
Each item that follows carries a reported pKd.
FYI, pKd means -log10 of a concentration in mol per litre.

Take a look at these entries with their results.
Problem: I would be grateful if you could share the reported pKd for TTLPVNVAF .
Result: 5.76

Problem: Next entry: FADINGKLY
Result: 5.50

Problem: Next entry: FMGRIRSVY
Result: 6.41

New cases:
Problem: I would be grateful if you could share the reported pKd for NQATTKTTF .
Result: 6.69

---

# measurement-target: HLA-A*01:01
# test-name: IEDB peptide-MHC binding, purified MHC/competitive/radioactivity; filed as Kd, often an IC50 or EC50 that approximates it; bounds were set here for any values at or beyond the usual limits of such assays
# test-parameters: source organism: Dengue virus 4 Philippines/H241/1956
test-readout: Kd
# include the unit after the value

Problem: I would be grateful if you could share the reported Kd for VLMMLVAPSY .
Result: 1 µM

New cases:
Problem: I would be grateful if you could share the reported Kd for TSETFSMGL .
Result: 7.69 µM

---

# measurement-target: HLA-A*31:01
# test-name: IEDB peptide-MHC binding, purified MHC/direct/fluorescence; filed as Kd, often an IC50 or EC50 that approximates it; bounds were set here for any values at or beyond the usual limits of such assays
# test-parameters: source organism: Influenza A virus (A/equine/New York/1/1999(H3N8))
pKd: −log10 of the molar value.
test-readout: pKd

Problem: Param readout= pKd; system= HLA-A*31:01; entry= RELVRKTRF ; returns value.
Result: ≤ 4.70

---

# measurement-target: HLA-A*26:01
# test-name: IEDB peptide-MHC binding, purified MHC/competitive/fluorescence; filed as Kd, often an IC50 or EC50 that approximates it; bounds were set here for any values at or beyond the usual limits of such assays
# test-parameters: source organism: Vibrio parahaemolyticus RIMD 2210633
test-readout: Kd

Problem: I would be grateful if you could share the reported Kd for SMNYPNSYK .
Result: ≥ 20 µM

---

# measurement-target: HLA-A*30:01
# test-name: IEDB peptide-MHC binding, purified MHC/competitive/fluorescence; filed as Kd, often an IC50 or EC50 that approximates it; bounds were set here for any values at or beyond the usual limits of such assays
# test-parameters: source organism: Vaccinia virus WR
test-readout: pKd
FYI, pKd means -log10 of a concentration in mol per litre.

Problem: I would be grateful if you could share the reported pKd for NYFNRMFHF .
Result: 5.49
